The values you see were collected from ChEMBL document CHEMBL5344422.

study.system: 20S proteasome (Homo sapiens) (UniProt P49721+P20618+P28074+P28062+P28065+P28072+P25786+P25787+P25788+P25789+P28066+P60900+O14818+Q8TAA3+P40306+A5LHX3+P49720+P28070+Q99436)
test.protocol: Activation of human 20S proteasome chymotrypsin-like hydrolysis activity assessed as measuring fold increase in protein activity using SucLLVY-MCA as a fluorogenic substrate at 20 uM incubated for 1 hrs by fluorescence based assay relative to DMSO
Assay type: protein-complex assay
condition.parameters: filed as activator
We use 5 as the dividing line for fold change (FC): on or above the line is label 1, below is label 0.

Does fold change (FC) meet or surpass 5 for COc1cc(/C=C/C(=O)CC(=O)/C=C/c2ccc(O)c(OC)c2)ccc1O ? label 1

Please check the record CC(C)C[C@H]1C(=O)N2CCC[C@H]2[C@]2(O)O[C@](NC(=O)[C@@H]3C=C4c5cccc6[nH]cc(c56)C[C@H]4N(C)C3)(C(C)C)C(=O)N12 and state if its fold change (FC) is at or above 5. label 1

Does fold change (FC) meet or surpass 5 for CC(C)[C@H]1C(=O)N2CCC[C@H]2[C@]2(O)O[C@](NC(=O)[C@@H]3C[C@@H]4c5cccc6[nH]cc(c56)C[C@H]4N(C)C3)(C(C)C)C(=O)N12 ? label 0

Reported fold change (FC) at or above 5? CCOC(=O)Oc1c(OC)cc(C(=O)O[C@@H]2C[C@@H]3CN4CCc5c([nH]c6cc(OC)ccc56)[C@H]4C[C@@H]3[C@H](C(=O)OC)[C@H]2OC)cc1OC label 1

fold change (FC) >= 5 for CN1C[C@H](C(=O)N[C@]2(C)O[C@@]3(O)[C@@H]4CCCN4C(=O)[C@H](Cc4ccccc4)N3C2=O)C=C2c3cccc4[nH]cc(c34)C[C@H]21 ? label 1

Decide: is the reported value of fold change (FC) for CC(C)=CCC/C(C)=C/CC/C(C)=C/CC/C(C)=C/CC1=C(C)C(=O)c2ccccc2C1=O equal to or greater than 5? label 0

Exam item: decide whether the reported fold change (FC) for COC(=O)[C@H]1[C@H]2C[C@@H]3c4[nH]c5cc(OC)ccc5c4CCN3C[C@H]2C[C@@H](OC(=O)c2cc(OC)c(OC)c(OC)c2)[C@@H]1OC is at least 5. label 1

Identify whether the reported fold change (FC) of the following molecule is 5 or greater: CC(C)[C@@]1(NC(=O)[C@@H]2C[C@@H]3c4cccc5[nH]cc(c45)C[C@H]3N(C)C2)O[C@@]2(O)[C@@H]3CCCN3C(=O)[C@H](Cc3ccccc3)N2C1=O label 1

Please indicate if the recorded fold change (FC) for C[C@H]1[C@H](C)CC[C@]2(C(=O)O)CC[C@]3(C)C(=CC[C@@H]4[C@@]5(C)CC[C@H](O)C(C)(C)[C@@H]5CC[C@]43C)[C@H]12 meets or exceeds 5. label 1

Hi, just wondering whether Cc1cc2nc3c(=O)[nH]c(=O)nc-3n(C[C@H](O)[C@H](O)[C@H](O)CO)c2cc1C shows fold change (FC) of 5 or higher. label 0

Record Cc1cc2c(C(C)C)c(O)c(O)c(C=O)c2c(O)c1-c1c(C)cc2c(C(C)C)c(O)c(O)c(C=O)c2c1O ; criterion: fold change (FC) no lower than 5. Met? label 0

# check: fold change (FC) of CC(C)C[C@H]1C(=O)N2CCC[C@H]2[C@]2(O)O[C@](NC(=O)[C@@H]3C=C4c5cccc6[nH]c(Br)c(c56)C[C@H]4N(C)C3)(C(C)C)C(=O)N12 is greater than or equal to 5 label 1

* * *

study.system: 20S proteasome (Homo sapiens) (UniProt P49721+P20618+P28074+P28062+P28065+P28072+P25786+P25787+P25788+P25789+P28066+P60900+O14818+Q8TAA3+P40306+A5LHX3+P49720+P28070+Q99436)
test.protocol: Activation of human 20S proteasome chymotrypsin-like hydrolysis activity assessed as measuring fold increase in protein activity using SucLLVY-MCA as a fluorogenic substrate at 10 uM incubated for 20 mins by fluorescence based assay relative to DMSO
Type: protein-complex assay
condition.parameters: filed as activator
measure.name: fold change (FC)
Hey, just send me the number, nothing else.

The reported fold change (FC) of the molecule COC(=O)[C@H]1[C@H]2C[C@H]3c4[nH]c5ccccc5c4CCN3C[C@H]2CC[C@@H]1O was 1.32

Record CCOC(=O)Oc1c(OC)cc(C(=O)O[C@@H]2C[C@@H]3CN4CCc5c([nH]c6cc(OC)ccc56)[C@H]4C[C@@H]3[C@H](C(=O)OC)[C@H]2OC)cc1OC , field fold change (FC): 12.5

COC(=O)[C@H]1/C(=N/O)CC[C@H]2CN3CCc4c([nH]c5ccccc45)[C@@H]3C[C@@H]21 yielded fold change (FC) of 1.49

fold change (FC) reading for COC(=O)[C@H]1[C@H]2C[C@H]3c4[nH]c5ccccc5c4CCN3C[C@@H]2CC[C@@H]1O : 0.99

Sample O=C(O)[C@@H]1[C@H]2C[C@H]3c4[nH]c5ccccc5c4CCN3C[C@@H]2CC[C@@H]1O ; fold change (FC) observed: 2.17

Measured fold change (FC), COc1ccc2c3c([nH]c2c1)[C@H]1C[C@H]2[C@H](C[C@@H](O)[C@H](OC)[C@H]2C(=O)O)CN1CC3 : 2.73

COC(=O)[C@H]1[C@H]2C[C@@H]3c4[nH]c5cc(OC)ccc5c4CCN3C[C@H]2C[C@@H](OC(=O)c2cc(OC)c(OC)c(OC)c2)[C@@H]1OC has a reported fold change (FC) of 7.91

The measured fold change (FC) associated with COC(=O)[C@@H]1[C@H]2C[C@H]3c4[nH]c5ccccc5c4CCN3C[C@@H]2CC[C@@H]1O reads 0.82
